These data points were gathered from the supplement of paper PMC10567573.

B1: CCDC70 (parent)
chain: FSFKVSRWMGLACFRSLAASSPSI

variants of: B1; assay: protein stability index of a GFP-peptide fusion (GPS, HEK-293T) (PSI 1-6); higher = more stable; conditions: c terminus: a fixed tail appended;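 further: lentivirally expressed fusions sorted by FACS into six bins by GFP to DsRed ratio, PSI derived from sequencing read proportions per bin multiplied by bin number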
I'd appreciate it if you could supply protein stability index values for the items below.

// returns reported protein stability index for input `M9H`
2.8

// returns reported protein stability index for input `S2Q`
3.39

// returns reported protein stability index for input `V5M`
2.01

// returns reported protein stability index for input `R7E`
3.4

// returns reported protein stability index for input `S6G`
2.88

// returns reported protein stability index for input `S20I`
3.96

// returns reported protein stability index for input `V5P`
2.21

// returns reported protein stability index for input `S16L`
2.13

// returns reported protein stability index for input `R15S`
1.7

// returns reported protein stability index for input `S2C`
3.54

// returns reported protein stability index for input `S6N`
3.31

// returns reported protein stability index for input `F1P`
2.2

// returns reported protein stability index for input `P22E`
3.78

// returns reported protein stability index for input `V5I`
1.72

// returns reported protein stability index for input `S21D`
2.8

// returns reported protein stability index for input `S20H`
1.81

// returns reported protein stability index for input `L11G`
3.16

// returns reported protein stability index for input `R15M`
3.86

// returns reported protein stability index for input `I24S`
2.06

// returns reported protein stability index for input `C13V`
2.52

// returns reported protein stability index for input `P22D`
2.97

// returns reported protein stability index for input `W8G`
3.55

// returns reported protein stability index for input `I24L`
3

// returns reported protein stability index for input `F14L`
2

// returns reported protein stability index for input `S21P`
3.96

// returns reported protein stability index for input `R7Q`
2.19

// returns reported protein stability index for input `P22M`
3.36

// returns reported protein stability index for input `S6W`
3.02

// returns reported protein stability index for input `V5N`
2.78

// returns reported protein stability index for input `F3T`
1.83

// returns reported protein stability index for input `S20W`
3.37

// returns reported protein stability index for input `I24K`
2.12

// returns reported protein stability index for input `S2D`
2.19

// returns reported protein stability index for input `V5Q`
3.04

// returns reported protein stability index for input `S20F`
4.72

// returns reported protein stability index for input `A19H`
2.03

// returns reported protein stability index for input `S20Y`
2.74

// returns reported protein stability index for input `A19Q`
2.32

// returns reported protein stability index for input `A12I`
3.43

// returns reported protein stability index for input `M9C`
3.07

// returns reported protein stability index for input `F3S`
2.6

// returns reported protein stability index for input `L17N`
2.73

// returns reported protein stability index for input `A18L`
2.9

// returns reported protein stability index for input `A18K`
4.48

// returns reported protein stability index for input `R7K`
2.3

// returns reported protein stability index for input `R15V`
3.28

// returns reported protein stability index for input `I24E`
1.44

// returns reported protein stability index for input `S2N`
2.32

// returns reported protein stability index for input `P22V`
2.95

// returns reported protein stability index for input `L11T`
3.12

// returns reported protein stability index for input `S23N`
3.56

// returns reported protein stability index for input `I24P`
1.41

// returns reported protein stability index for input `W8I`
2.9

// returns reported protein stability index for input `S6I`
2.7

// returns reported protein stability index for input `V5W`
2.13

// returns reported protein stability index for input `R15Y`
2.87

// returns reported protein stability index for input `K4G`
2.99

// returns reported protein stability index for input `P22K`
2.38

// returns reported protein stability index for input `S2H`
1.33

// returns reported protein stability index for input `W8Q`
3.47

// returns reported protein stability index for input `R7I`
4.23

// returns reported protein stability index for input `F14N`
2.56

// returns reported protein stability index for input `F1Q`
2.12

// returns reported protein stability index for input `I24N`
2.33

// returns reported protein stability index for input `L11M`
3.73

// returns reported protein stability index for input `G10K`
3.17

// returns reported protein stability index for input `R7H`
3.25

// returns reported protein stability index for input `A19M`
3.27

// returns reported protein stability index for input `L17G`
3.62

// returns reported protein stability index for input `S21Y`
1.82

// returns reported protein stability index for input `W8M`
1.77

// returns reported protein stability index for input `L17R`
2.19

// returns reported protein stability index for input `R15W`
4.5

// returns reported protein stability index for input `K4A`
2.38

// returns reported protein stability index for input `A12F`
2.57

// returns reported protein stability index for input `S23Y`
2.1

// returns reported protein stability index for input `R7S`
2.14

// returns reported protein stability index for input `L17Q`
1.83

// returns reported protein stability index for input `S2P`
2.37

// returns reported protein stability index for input `S23C`
2.6

// returns reported protein stability index for input `S23K`
2.68

// returns reported protein stability index for input `G10S`
2.98

// returns reported protein stability index for input `I24Q`
2.38

// returns reported protein stability index for input `L11D`
2.84

// returns reported protein stability index for input `V5Y`
2.98

// returns reported protein stability index for input `A18T`
2.82

// returns reported protein stability index for input `R15I`
2.04

// returns reported protein stability index for input `C13W`
2.35

// returns reported protein stability index for input `V5L`
2.22

// returns reported protein stability index for input `A19V`
3.78

// returns reported protein stability index for input `S6D`
2.35
